Hello, the source for this data is patent US8575168B2, in case you need it.

experimental_system: UniProt:Q8TDV5
Sequence (Q8TDV5 whole entry): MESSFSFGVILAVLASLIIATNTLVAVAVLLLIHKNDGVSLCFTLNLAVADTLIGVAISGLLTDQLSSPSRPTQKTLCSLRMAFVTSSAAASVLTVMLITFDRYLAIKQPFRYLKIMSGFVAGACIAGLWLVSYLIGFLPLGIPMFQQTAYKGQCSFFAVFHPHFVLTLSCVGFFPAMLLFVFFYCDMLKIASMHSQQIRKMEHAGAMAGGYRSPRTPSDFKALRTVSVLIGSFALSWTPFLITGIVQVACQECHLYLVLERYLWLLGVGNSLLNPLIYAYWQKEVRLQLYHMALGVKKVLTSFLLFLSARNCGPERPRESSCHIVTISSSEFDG
protocol_details: Cyclic AMP Assay in Stable Cell Line (HTRF)
applied_conditions: Flp-In-CHO-hGPR119 cells, intracellular cAMP, 30 minutes at 37° C., 1 mM IBMX
Response field label: string, one of Criterion met (EC50 strictly below 100 nM) or Criterion not met.

CS(=O)(=O)N1CCC(c2cc(F)c(OC3CCN(Cc4ccc(C(F)(F)F)cc4)C3)c(F)c2)CC1 (stereo not shown)    Criterion not met
CC(C)c1noc(CN2CCC(Oc3c(F)cc(C4CCN(S(C)(=O)=O)CC4)cc3F)CC2)n1    Criterion met
O=C(N1CC=C(c2cc(F)c(OC3CN(Cc4ccc(C(F)(F)F)cc4)C3)c(F)c2)CC1)C(F)(F)F    Criterion not met
CCC(c1ccc(C(F)(F)F)cc1)N1CC(Oc2c(F)cc(C3CCN(S(C)(=O)=O)CC3)cc2F)C1 (stereo not shown)    Criterion not met
CC(C)(C)OC(=O)N1CCC(S(=O)(=O)N2CCC(c3cc(F)c(OC4CN(Cc5ccc(C(F)(F)F)cc5)C4)c(F)c3)CC2)CC1    Criterion not met
Cn1nc(C(F)(F)F)cc1CN1CCC(Oc2c(F)cc(C3CCN(S(C)(=O)=O)CC3)cc2F)CC1    Criterion met

# input for lookup
Enquiry: Problem: For the compound CC(c1nc(C(F)(F)F)no1)N1CCC(Oc2c(F)cc(C3CCN(S(C)(=O)=O)CC3)cc2F)CC1 (stereo not shown) , is EC50 under 100 nM?
Return: Criterion met
